- Test system: HaCaT cells
- METHOD DESCRIPTION: MTT assay, normal HaCaT keratinocytes
- Type: cell-based
- ASSAY CONDITIONS: 72 h, normal human keratinocytes, read-out: Inhibitory Effect (IC50/μM) HaCaT
MEASURED METRIC: IC50

COMPOUND	RESULT
N.N.[Cl][Pt][Cl] [Cis-platin, cisplatin, reference compound]	7.1 µM
